# Test system: isolated guinea pig gallbladder
# METHOD DESCRIPTION: Functional activity in isolated guinea pig gallbladder preparation
# Format: cell-based
# CONDITION LABEL: Cavia porcellus, 3 × 10^-5 M test compound; expressed as % CCK-induced maximal response; read-out: % Contraction (3 × 10^-5 M)
Rule: fulfilled for activation at 30 µM not less than 90%, not fulfilled for anything less.

{"MOLECULE": "CC(C)N(C(=O)CN1C(=O)C(C)(CC(=O)Nc2ccccc2)C(=O)N(c2ccccc2)c2ccccc21)c1ccccc1 (centres unmarked) [Example 4]", "SYSTEM TESTED": "isolated guinea pig gallbladder", "CLASS": "not fulfilled"}
{"MOLECULE": "COc1ccc(N(C(=O)CN2C(=O)C(C)(Cc3c[nH]c4ccccc34)C(=O)N(c3ccccc3)c3ccccc32)C(C)C)cc1 (centres unmarked) [Example 23]", "SYSTEM TESTED": "isolated guinea pig gallbladder", "CLASS": "not fulfilled"}
{"MOLECULE": "COc1ccc(N(C(=O)CN2C(=O)C(Cc3n[nH]c4c3CCCC4)C(=O)N(c3ccccc3)c3ccccc32)C(C)C)cc1 (centres unmarked) [Example 51]", "SYSTEM TESTED": "isolated guinea pig gallbladder", "CLASS": "not fulfilled"}
{"MOLECULE": "COc1ccc(N(C(=O)CN2C(=O)C(Cn3cnc4ccccc43)C(=O)N(c3ccccc3)c3ccccc32)C(C)C)cc1 (centres unmarked) [Example 56]", "SYSTEM TESTED": "isolated guinea pig gallbladder", "CLASS": "fulfilled"}
{"MOLECULE": "CC(C)N(C(=O)CN1C(=O)C(C)(CC(=O)Nc2cccc(C(=O)O)c2)C(=O)N(c2ccccc2)c2ccccc21)c1ccccc1 (centres unmarked) [Example 3]", "SYSTEM TESTED": "isolated guinea pig gallbladder", "CLASS": "fulfilled"}
{"MOLECULE": "COc1ccc(N(C(=O)CN2C(=O)C(Cc3noc4ncccc34)C(=O)N(c3ccccc3)c3ccccc32)C(C)C)cc1 (centres unmarked) [Example 48]", "SYSTEM TESTED": "isolated guinea pig gallbladder", "CLASS": "not fulfilled"}
{"MOLECULE": "CC(C)N(C(=O)CN1C(=O)C(Cc2n[nH]c3ccccc23)C(=O)N(c2ccccc2)c2ccccc21)c1ccc(F)cc1 (centres unmarked) [Example 57]", "SYSTEM TESTED": "isolated guinea pig gallbladder", "CLASS": "fulfilled"}
{"MOLECULE": "COc1cccc(N(C(=O)CN2C(=O)C(Cc3n[nH]c4ccccc34)C(=O)N(c3ccccc3)c3ccccc32)C(C)C)c1 (centres unmarked) [Example 79]", "SYSTEM TESTED": "isolated guinea pig gallbladder", "CLASS": "fulfilled"}
{"MOLECULE": "COc1ccc(N(C(=O)CN2C(=O)C(Cc3n[nH]c4ccccc34)C(=O)N(c3cccc(F)c3)c3ccccc32)C(C)C)cc1 (centres unmarked) [Example 81]", "SYSTEM TESTED": "isolated guinea pig gallbladder", "CLASS": "fulfilled"}
{"MOLECULE": "COc1ccc(N(C(=O)CN2C(=O)C(Cc3n[nH]c4ccccc34)(OC)C(=O)N(c3cccnc3)c3ccccc32)C(C)C)cc1 (centres unmarked) [Example 53]", "SYSTEM TESTED": "isolated guinea pig gallbladder", "CLASS": "fulfilled"}

Q. Please indicate if the recorded activation at 30 µM for COc1ccc(N(C(=O)CN2C(=O)C(Cc3cc(C)nn3Cc3ccccc3)C(=O)N(c3ccccc3)c3ccccc32)C(C)C)cc1 (centres unmarked) [Example 54] meets or exceeds 90%.
A. not fulfilled

Q. Tell me whether activation at 30 µM is at least 90% here: COc1ccc(N(C(=O)CN2C(=O)C(Cc3n[nH]c4ccccc34)C(=O)N(c3cccs3)c3ccccc32)C(C)C)cc1 (centres unmarked) [Example 59]
A. fulfilled

Q. // inclusive: activation at 30 µM at least 90%? input: CC(C)N(C(=O)CN1C(=O)C(Cc2n[nH]c3ccccc23)C(=O)N(c2ccccc2)c2ccccc21)c1ccc2c(c1)OCO2 (centres unmarked) [Example 77]
A. fulfilled
